Overview of recorded LC retention time for various compounds
Assay: Agilent ZORBAX 300 SB-C18, 150 × 1 mm, 3.5 µm; A: water + 0.01% heptafluorobutyric acid; B: acetonitrile + 0.01% heptafluorobutyric acid; gradient (min/%B) 0/0 100/90
Conditions: stereoisomer not certain
Number only, in min; omit the unit.

Reported LC retention time for CCc1c(C)nc2c(O)cccn2c1=O : what is it?
8.76

Next:
Reported LC retention time for CC(=NCCN1CCNCC1)C1=C(O)CC(C)(C)CC1=O : what is it?
8.02

Please answer likewise for CN(C)CCCN1c2ccccc2CCc2ccccc21
11.6

* * *

Overview of recorded LC retention time for various molecules
Assay: Agilent ZORBAX 300 SB-C18, 150 × 1 mm, 3.5 µm; A: water + 0.01% heptafluorobutyric acid; B: acetonitrile + 0.01% heptafluorobutyric acid; gradient (min/%B) 0/0 100/90
Settings: stereoisomer not certain
Number only, in min; omit the unit.

Reported LC retention time for CCCCCn1c(CCC)nc2ccccc21 : what is it?
11.3

Please answer likewise for Nc1ccccc1NCCOc1ccccc1
11

Please answer likewise for Cc1ncc[nH]1
4.53

Please answer likewise for CCOC(=O)C(Cc1ccc(NC(=O)c2ccccc2)cc1)N1C(=O)c2ccccc2C1=O (stereo not drawn)
15.2

Please answer likewise for O=C(O)C=CC(=O)N1CCc2ccccc21
9.97

Please answer likewise for CC1=NC(=O)NC(c2ccccc2)C1C(=O)OC(C)C(C)(C)C (stereo not drawn)
13.9

Please answer likewise for O=C(O)CCCc1ccncc1
6.69

Please answer likewise for CCN(CC)c1ccc(N=Cc2ccc(N(CC)CC)cc2O)cc1
11.5

Please answer likewise for CCCCCCCCCC(N)=O
13.8

Please answer likewise for OCC1Cc2ccccc2CN1 (stereo not drawn)
7.39

Please answer likewise for Nc1c(S(=O)(=O)O)[nH]c(=O)[nH]c1=O
1.22

Please answer likewise for c1ccc(CCNc2ccncn2)nc1
7.03

Please answer likewise for CC1(C)CC(=O)c2cc3c(nc2C1)CC(C)(C)CC3=O
13.2

Please answer likewise for OCc1cccc(CO)n1
5.64

Please answer likewise for O=C(O)c1ccc(=O)[nH]c1
4.42

Please answer likewise for CN(C)NC1=CC(=O)CC(c2ccccc2)C1 (stereo not drawn)
10.4

Please answer likewise for Oc1ccc2cccc(-n3cccc3)c2c1
14.1

Please answer likewise for Cc1ccc(-c2ccc3ccccc3n2)cc1
13.4

Please answer likewise for Cc1cccc(N)c1N
7.32

* * *

Assay: Agilent ZORBAX 300 SB-C18, 150 × 1 mm, 3.5 µm; A: water + 0.01% heptafluorobutyric acid; B: acetonitrile + 0.01% heptafluorobutyric acid; gradient (min/%B) 0/0 100/90
Settings: stereoisomer not certain
Lab note: compare LC retention time with 10 min, writing TRUE if less and FALSE if equal or more.

Take a look at these entries with their results.
Please let me know if O=c1cc[nH]c(=O)[nH]1 shows LC retention time below 10 min.
TRUE

Please answer likewise for Nc1ccccc1C(=O)NN=Cc1cccc2ccccc12
FALSE

Please answer likewise for Cc1cc(C)c(N)c(C(=O)O)c1
FALSE

Please answer likewise for CCCCCCCCCCCCCCCCN
FALSE

Next:
Please let me know if CCOC(=O)CC(=O)Nc1ccc(C(=O)OC)cc1 shows LC retention time below 10 min.
FALSE

Please answer likewise for COc1ccc(C=CC(=O)c2ccccc2)cc1OC
FALSE

Please answer likewise for COc1ccc2c3c1OC1C(=O)CCC4(O)C(C2)N(C)CCC314 (configuration not stated)
TRUE

* * *

Test: Agilent ZORBAX 300 SB-C18, 150 × 1 mm, 3.5 µm; A: water + 0.01% heptafluorobutyric acid; B: acetonitrile + 0.01% heptafluorobutyric acid; gradient (min/%B) 0/0 100/90
Conditions: stereoisomer not certain
Lab note: compare LC retention time with 8 min, writing T if less and F if equal or more.

Take a look at these entries with their results.
Please let me know if Nc1ccc2nccnc2c1 shows LC retention time below 8 min.
T

Please answer likewise for Cc1nc2ccccc2c(=O)o1
F

Please answer likewise for CCCCNC(=O)NCCCC
F

Please answer likewise for CC(=O)C1(O)CCC2C3C=CC4=CC(=O)CCC4(C)C3CCC21C (centres undefined)
F

Next:
Please let me know if CC(NC(=O)c1ccc(CN2CCc3ccccc3C2)cc1)c1ccccc1 (centres undefined) shows LC retention time below 8 min.
F

Please answer likewise for CC1(C)OCOC1=CC[N+](C)(C)C
T

Please answer likewise for CCN(CC)C(=O)N1CCN(C)CC1
T

* * *

Test: Agilent ZORBAX 300 SB-C18, 150 × 1 mm, 3.5 µm; A: water + 0.01% heptafluorobutyric acid; B: acetonitrile + 0.01% heptafluorobutyric acid; gradient (min/%B) 0/0 100/90
Details: stereoisomer not certain
Assign rule met to entries whose LC retention time meets or exceeds 10 min; assign rule not met to the rest.

Hi, just wondering whether Cc1[nH]c(C)c(C(=O)c2ccccc2)c1C shows LC retention time of 10 min or higher.
rule met

Next:
Hi, just wondering whether COC(=O)CCc1c(COC(C)=O)[nH]c(C(=O)OCc2ccccc2)c1C shows LC retention time of 10 min or higher.
rule met

Please answer likewise for CC(C)c1ccc(-c2cc(-c3ccccc3)c3c(ccc4ncccc43)n2)cc1
rule met

Please answer likewise for Cc1c(-c2nc3ccccc3[nH]2)cnn1C
rule not met

Please answer likewise for Cc1ccc(NC(=S)NC2CC(C)(C)NC(C)(C)C2)cc1
rule not met

Please answer likewise for NC(=S)NCCc1ccccc1
rule not met

Please answer likewise for Cc1sc(C)c(CNCC(C)C)c1CNCC(C)C
rule not met

* * *

Test: Agilent ZORBAX 300 SB-C18, 150 × 1 mm, 3.5 µm; A: water + 0.01% heptafluorobutyric acid; B: acetonitrile + 0.01% heptafluorobutyric acid; gradient (min/%B) 0/0 100/90
Conditions: stereoisomer not certain
PARAMETER MEASURED: LC retention time (min)
Number only, in min; omit the unit.

Reported LC retention time for Cc1cc(C)c(C=CC(=O)c2cccs2)c(C)c1 : what is it?
18.2

* * *

Assay: Agilent ZORBAX 300 SB-C18, 150 × 1 mm, 3.5 µm; A: water + 0.01% heptafluorobutyric acid; B: acetonitrile + 0.01% heptafluorobutyric acid; gradient (min/%B) 0/0 100/90
Conditions: stereoisomer not certain
Lab note: compare LC retention time with 7 min, writing label 1 if less and label 0 if equal or more.

Take a look at these entries with their results.
Please let me know if CNCCCc1cc(C)ccc1O shows LC retention time below 7 min.
label 0

Please answer likewise for O=C(NCCO)C(=O)NC(c1ccccc1)c1ccccc1
label 0

Please answer likewise for C1CCCNCC1
label 1

Please answer likewise for NCCCP(=O)(O)O
label 1

Please answer likewise for CC(Nc1ccc2ccccc2c1)C(=O)NN=Cc1c2ccccc2cc2ccccc12 (stereo unspecified)
label 0

Note: attention shifts to another entry.
Please let me know if Cc1ccc(C(=O)O)c(=O)[nH]1 shows LC retention time below 7 min.
label 1

* * *

Overview of recorded LC retention time for various compounds
Test: Agilent ZORBAX 300 SB-C18, 150 × 1 mm, 3.5 µm; A: water + 0.01% heptafluorobutyric acid; B: acetonitrile + 0.01% heptafluorobutyric acid; gradient (min/%B) 0/0 100/90
Details: stereoisomer not certain
Number only, in min; omit the unit.

Field: example entries. Status: answers known.
Reported LC retention time for CC(C)CNCC(C)C : what is it?
8.04

Please answer likewise for Cc1n[nH]c(=O)nc1N=NCc1c[nH]c2ccccc12
10

Please answer likewise for C=CCN(C)CC=C
6.98

Please answer likewise for CC(=O)c1c(C(C)=O)c(C)n(C)c1C
8.65

Please answer likewise for CCCCCCN(C)C
8.53

Please answer likewise for c1cncc(CNCc2cccnc2)c1
7.11

Here's the next entry for you.
Reported LC retention time for CCOC1CCC2CC3C4CCC(O)C5OC1C2C45CCN3C (configuration not stated) : what is it?
8.78

* * *

Assay: Agilent ZORBAX 300 SB-C18, 150 × 1 mm, 3.5 µm; A: water + 0.01% heptafluorobutyric acid; B: acetonitrile + 0.01% heptafluorobutyric acid; gradient (min/%B) 0/0 100/90
Conditions: stereoisomer not certain
Lab note: compare LC retention time with 9 min, writing t if less and f if equal or more.

Please let me know if Cc1cc(N)c2c(c1)CCC(=O)N2 shows LC retention time below 9 min.
t

Please answer likewise for C=CCNCC=C
t

Please answer likewise for CCCN1CCCCC1C(=O)Nc1c(C)cccc1C (stereo unspecified)
f

Please answer likewise for CC=CC(=O)CC
f

Please answer likewise for CCCCCCN(C)CCCCCC
f

Note: attention shifts to another entry.
Please let me know if CCN(CC)CCOC(=O)c1ccc(N)cc1 shows LC retention time below 9 min.
t

* * *

Assay: Agilent ZORBAX 300 SB-C18, 150 × 1 mm, 3.5 µm; A: water + 0.01% heptafluorobutyric acid; B: acetonitrile + 0.01% heptafluorobutyric acid; gradient (min/%B) 0/0 100/90
Details: stereoisomer not certain
Overview of recorded LC retention time for various molecules
Number only, in min; omit the unit.

Field: example entries. Status: answers known.
Reported LC retention time for CC(C)NC(C)C : what is it?
7.12

Please answer likewise for CCN(CCCCOC(=O)c1ccc(OC)c(OC)c1)C(C)Cc1ccc(OC)cc1 (stereo unspecified)
11.9

Please answer likewise for Nc1ccc(N2CCCC2=O)cc1
7.31

Please answer likewise for Cc1cc(C)nc(C)c1
7.46

Please answer likewise for COc1ccc(N2C(=O)CC(C3CCCO3)C2=O)cc1 (stereo unspecified)
10.7

Please answer likewise for CCc1ccc(C2CC(=O)N(N(C)C)C3=C2C(=O)CCC3)cc1 (stereo unspecified)
15.1

Please answer likewise for CC(=O)Oc1ccc2c(c1)cc(C)n2C
13.3

Please answer likewise for CC(C)=C(NC(=O)c1ccccc1)C(=O)NCCc1c(C)[nH]c2ccccc12
12.3

Next:
Reported LC retention time for O=C1c2ccccc2C(=O)c2cc(C(=O)N3CCC(c4ccccc4)CC3)ccc21 : what is it?
17

Please answer likewise for Cc1ccc(-n2nc(-c3cn(C)nc3C)cc2-c2cn(C)nc2C)cc1
12

Please answer likewise for Nc1cc(C(=O)N2CCCCC2)cc(C(=O)N2CCCCC2)c1
9.88

Please answer likewise for COc1ccc(C(=O)NCC(=O)NN)cc1OC
7.29

Please answer likewise for CN(C)c1ccc(C=NNC(=O)C(c2ccccc2)c2ccccc2)cc1
15.4

Please answer likewise for CCOC(=O)CN1C(=O)N(C)Cc2ccccc21
11.4

Please answer likewise for CCCNC(=O)Nc1ccc2c(c1)oc1ccccc12
14

Please answer likewise for Cc1ccc(C=NNC(N)=S)cc1
10.8
